target: HIV protease (Human immunodeficiency virus type 1 group M subtype B); test: HIV protease assay, inhibition of cleavage of acetyl-Thr-Ile-Met-Met-Gln-Arg-NH2 (HPLC); format: biochemical, HIV-1; conditions: in vitro inhibition of HIV protease, pH 6.5, 25°; read-out: KI
Numbered stars: 1 amine (or outer) side, 2 acyl side, 3 side chain; on linkers, the order of the positions; unused ones are H or OH. Square brackets hold non-standard residues; d marks the D form. Peptide text beside a SMILES is read from it. LeuΨ(CH2N)Pro = CC(C)C[C@@H](CN1CCC[C@H]1C(=O)[*:2])N[*:1]; X1 = O=C([C@@H]1CCCN1C[C@H](Cc1ccc(O)cc1)N[*:1])[*:2]
Listing of recorded pKi by entry.
// pKi: -log10(molar conc.)

These solved cases illustrate the format of a correct answer.
- COMPOUND: "CC[C@H](C)[C@H](NC(=O)[C@@H](NC(C)=O)[C@@H](C)O)C(=O)N[C@H](CN[C@@H](CC(C)C)C(=O)N[C@@H](CCC(N)=O)C(=O)N[C@@H](CCCNC(=N)N)C(N)=O)CC(C)C"
  pKi: 6.13
- COMPOUND: "CC(C)C[C@@H](CN1CCC[C@H]1C(=O)N[C@H](C(=O)N[C@@H](C)C(=O)O)C(C)C)NC(=O)[C@H](CC(N)=O)NC(=O)[C@H](CC(C)C)NC(=O)[C@@H](N)CO (H-SLN[LeuΨ(CH2N)Pro]VA-OH)"
  pKi: 4.88

Tell us which pKi value is on record for CC[C@H](C)[C@H](NC(=O)[C@@H]1CCCN1C[C@H](Cc1ccc(O)cc1)NC(=O)[C@H](CC(N)=O)NC(=O)[C@H](CCC(N)=O)NC(C)=O)C(=O)N[C@H](C(N)=O)C(C)C (Ac-QN[X1]IV-NH2)
4.76

====

biological target: HIV protease (Human immunodeficiency virus type 1 group M subtype B); experiment: HIV protease assay, inhibition of cleavage of acetyl-Thr-Ile-Met-Met-Gln-Arg-NH2 (HPLC); type: biochemical, HIV-1; conditions: affinities not fully characterized, classified by comparative inhibition studies; read-out: KI (affinity category)
Numbered stars: 1 amine (or outer) side, 2 acyl side, 3 side chain; on linkers, the order of the positions; unused ones are H or OH. Square brackets hold non-standard residues; d marks the D form. Peptide text beside a SMILES is read from it. X4 = C[C@@H](CN1CCC[C@H]1C(=O)[*:2])N[*:1]
Listed compounds paired with reported Ki

Look over these answered cases.
- COMPOUND: "CCCC[C@@H](CN[C@@H](CCCC)C(=O)N[C@@H](CCC(N)=O)C(=O)N[C@@H](CCC)C(N)=O)NC(=O)[C@@H](NC(=O)[C@@H](NC(C)=O)[C@@H](C)O)[C@@H](C)CC"
  RESULT_VALUE: "1 to 100 µM"
- COMPOUND: "CCCC[C@@H](CN[C@@H](CCCC)C(=O)N[C@@H](CCC(N)=O)C(=O)N[C@@H](CCCNC(=N)N)C(N)=O)NC(=O)[C@@H](NC(=O)[C@H](NC(C)=O)[C@H](C)O)[C@@H](C)CC"
  RESULT_VALUE: "1 to 100 µM"
- COMPOUND: "CC(=O)N[C@@H](CC(C)C)C(=O)N[C@@H](C)C(=O)N[C@@H](C)CN1CCC[C@H]1C(=O)N[C@@H](CCC(N)=O)C(=O)N[C@@H](Cc1ccccc1)C(N)=O (Ac-LA[X4]QF-NH2)"
  RESULT_VALUE: "> 100 µM"
- COMPOUND: "CCCC[C@@H](CN[C@@H](CC1CCCCC1)C(=O)N[C@@H](CCC(N)=O)C(=O)N[C@@H](CCCNC(=N)N)C(N)=O)NC(=O)[C@@H](NC(=O)[C@@H](NC(C)=O)[C@@H](C)O)[C@@H](C)CC"
  RESULT_VALUE: "< 1 µM"

With those in mind, consider the next compound.
Tell us which Ki value is on record for `CCCC[C@@H](CN[C@@H](CCCC)C(=O)N[C@@H](CCC(N)=O)C(N)=O)NC(=O)[C@@H](NC(=O)[C@@H](NC(C)=O)[C@@H](C)O)[C@@H](C)CC`
1 to 100 µM

====

Property: pKi; scope: individual molecules
molecular target: UniProtKB P04585; experiment: HIV protease assay, inhibition of cleavage of acetyl-Thr-Ile-Met-Met-Gln-Arg-NH2 (HPLC); type: biochemical, HIV-1; settings: affinities not fully characterized, classified by comparative inhibition studies; read-out: KI (affinity category)
pKi: −log10 of the molar value. Numbered stars: 1 amine (or outer) side, 2 acyl side, 3 side chain; on linkers, the order of the positions; unused ones are H or OH. Square brackets hold non-standard residues; d marks the D form. Peptide text beside a SMILES is read from it. X2 = O=C([C@@H]1CCCN1C[C@H](Cc1ccccc1)N[*:1])[*:2]; X3 = CCCC[C@@H](CN(C)[C@@H](CCCC)C(=O)[*:2])N[*:1]

Solved cases (4 shown):
- MOLECULE: "CCCC[C@@H](CN[C@@H](CCCC)C(=O)N[C@@H](CCC(N)=O)C(=O)N[C@H](CCCNC(=N)N)C(N)=O)NC(=O)[C@@H](NC(=O)[C@@H](NC(C)=O)[C@@H](C)O)[C@@H](C)CC"
  RESULT_VALUE: "4.00 to 6.00"
- MOLECULE: "CCCC[C@@H](CN(C)[C@@H](CCCC)C(=O)N[C@@H](CCC(N)=O)C(=O)N[C@@H](CCCNC(=N)N)C(N)=O)NC(=O)[C@@H](NC(=O)[C@@H](NC(C)=O)[C@@H](C)O)[C@@H](C)CC (Ac-TI[X3]QR-NH2)"
  RESULT_VALUE: "< 4.00"
- MOLECULE: "CC[C@H](C)[C@H](NC(=O)[C@H](CCC(N)=O)NC(=O)[C@@H]1CCCN1C[C@H](Cc1ccccc1)NC(=O)[C@H](CC(N)=O)NC(=O)[C@H](Cc1ccccc1)NC(C)=O)C(N)=O (Ac-FN[X2]QI-NH2)"
  RESULT_VALUE: "4.00 to 6.00"
- MOLECULE: "CC[C@H](C)[C@H](NC(=O)[C@@H]1CCCN1C[C@H](Cc1ccccc1)NC(=O)[C@H](CC(N)=O)NC(=O)[C@H](CC(C)C)NC(=O)[C@@H](N)[C@@H](C)O)C(=O)N[C@@H](CO)C(=O)O (H-TLN[X2]IS-OH)"
  RESULT_VALUE: "4.00 to 6.00"

Please turn your attention to the following entry.
Specify measured pKi for `CCCC[C@@H](CN[C@@H](CCCC)C(=O)N[C@H](C(=O)N[C@H](C(N)=O)[C@@H](C)O)[C@@H](C)CC)NC(=O)[C@H](CCC(N)=O)NC(=O)[C@H](CCCNC(=N)N)NC(C)=O` .
4.00 to 6.00

====

target: HIV protease (Human immunodeficiency virus type 1 group M subtype B, UniProt P04585); assay: HIV protease assay, inhibition of cleavage of acetyl-Thr-Ile-Met-Met-Gln-Arg-NH2 (HPLC); assay type: biochemical, HIV-1; conditions: affinities not fully characterized, classified by comparative inhibition studies; read-out: KI (affinity category)
Numbered stars: 1 amine (or outer) side, 2 acyl side, 3 side chain; on linkers, the order of the positions; unused ones are H or OH. Square brackets hold non-standard residues; d marks the D form. Peptide text beside a SMILES is read from it. X1 = O=C([C@@H]1CCCN1C[C@H](Cc1ccc(O)cc1)N[*:1])[*:2]; X2 = O=C([C@@H]1CCCN1C[C@H](Cc1ccccc1)N[*:1])[*:2]
OBSERVATION_TYPE: Ki

- COMPOUND: "CCCC[C@@H](CN[C@@H](Cc1ccccc1)C(=O)N[C@@H](CCC(N)=O)C(=O)N[C@@H](CCCNC(=N)N)C(N)=O)NC(=O)[C@@H](NC(=O)[C@@H](NC(C)=O)[C@@H](C)O)[C@@H](C)CC"
  RESULT_VALUE: "< 1000 nM"
- COMPOUND: "CCCC[C@@H](CN[C@H](C(=O)N[C@@H](CCC(N)=O)C(=O)N[C@@H](CCCNC(=N)N)C(N)=O)[C@@H](C)CC)NC(=O)[C@@H](NC(=O)[C@@H](NC(C)=O)[C@@H](C)O)[C@@H](C)CC"
  RESULT_VALUE: "< 1000 nM"
- COMPOUND: "CC[C@H](C)[C@H](NC(=O)[C@@H]1CCCN1C[C@H](Cc1ccccc1)NC(=O)[C@H](CC(N)=O)NC(=O)[C@H](CC(C)C)NC(C)=O)C(=O)N[C@@H](CO)C(=O)O (Ac-LN[X2]IS-OH)"
  RESULT_VALUE: "1000 to 100000 nM"
- COMPOUND: "CCCC[C@@H](CNC1(C(=O)N[C@@H](CCC(N)=O)C(=O)N[C@@H](CCCNC(=N)N)C(N)=O)CCCC1)NC(=O)[C@@H](NC(=O)[C@@H](NC(C)=O)[C@@H](C)O)[C@@H](C)CC"
  RESULT_VALUE: "> 100000 nM"
- COMPOUND: "CC(=O)NCC(=O)N[C@@H](CC(N)=O)C(=O)N[C@@H](Cc1ccc(O)cc1)CN1CCC[C@H]1C(=O)N[C@H](C(=O)N[C@@H](CCC(N)=O)C(N)=O)C(C)C (Ac-GN[X1]VQ-NH2)"
  RESULT_VALUE: "1000 to 100000 nM"
- COMPOUND: "CCCC[C@@H](CN[C@@H](CC(C)C)C(=O)N[C@@H](CCC(N)=O)C(=O)N[C@@H](CCCNC(=N)N)C(N)=O)NC(=O)[C@@H](NC(=O)[C@@H](NC(C)=O)[C@@H](C)O)[C@@H](C)CC"
  RESULT_VALUE: "< 1000 nM"

Please report Ki for the following compound: CC[C@H](C)[C@H](NC(=O)[C@H](CCC(N)=O)NC(=O)[C@@H]1CCCN1C[C@H](Cc1ccccc1)NC(=O)[C@H](CC(N)=O)NC(=O)[C@H](Cc1ccccc1)NC(=O)[C@H](CO)NC(C)=O)C(N)=O (Ac-SFN[X2]QI-NH2)
1000 to 100000 nM

Source listed as patent US5342922A.
